Test system: panicum, fall (fall panicum, Panicum dichotomiflorum)
Method: Test E greenhouse herbicide test, pre- and postemergence
Type: in vivo
Recorded conditions: 62 g ai/ha, Postemergence; scale 0 to 100 (0 no effect, 100 complete control)
Decide by Plant response rating, Panicum, Fall: equal to or exceeding 50 means 1 (yes), less means 0 (no).

# Compound, Class assignment
measured = [
    ("CCc1sc2c(C)cc(C)cc2c1-c1c(O)c(C)nn(C)c1=O [Compound 57]", "1 (yes)"),
    ("Cc1cc2ccccc2c(-c2c(O)c(C)nn(C)c2=O)c1C [Compound 34]", "1 (yes)"),
    ("Cc1nn(C)c(=O)c(-c2ccc(F)c3ccccc23)c1O [Compound 41]", "0 (no)"),
    ("Cc1nn(C)c(=O)c(-c2cccc3ccc(Br)cc23)c1O [Compound 126]", "0 (no)"),
    ("CCCC(=O)Oc1c(C)nn(C)c(=O)c1-c1c(C)sc2ccc(C)cc12 [Compound 105]", "1 (yes)"),
    ("CCc1sc2ccc(C)cc2c1-c1c(O)c(C)nn(C)c1=O [Compound 47]", "1 (yes)"),
]
